All figures here come from PubChem BioAssay (NCATS).

biological target: Lysosomal acid glucosylceramidase (Homo sapiens); test: Glucocerebrosidase-p2 (AID 348); conditions: purified GBA, blue fluorogenic substrate, 40 min; also: potency is read from the fitted curve at half-maximal effect
Activity calls are given as the source filed them. Rule as the data show it: active = potency below about 10 µM; inactive = the rest.
quantityKind: Potency

Look up Potency for this molecule: `O=c1c(-c2ccccc2)nc2cncnc2n1C1CC1` > 11.4 µM (inactive)

Endpoint output: Potency of `Cc1noc(C)c1-c1nc(NCc2cccs2)c2ccccc2n1` . Value? > 2.29 µM (inactive)

Can you share its Potency? I mean this molecule: `COc1ccc(C(=O)N2CCC3(CC2)CCN(c2ccccc2)CC3)cc1` > 11.4 µM (inactive)

Which measured Potency value corresponds to `CC(C)CN1CCC2(CC1)CCN(C(=O)c1ccco1)CC2` ? > 11.4 µM (inactive)

For the molecule shown here, `COc1cccc(Nc2ncc3nc(C)c(=O)n(-c4ccccc4)c3n2)c1` , give the reported Potency. > 11.4 µM (inactive)

Entry under review: `Cc1cccc(CNc2ccnc(-c3ccc(C(=O)N(C)C)cc3)n2)c1` . Reported Potency? > 11.4 µM (inactive)

Name the recorded Potency for `O=c1c(-c2ccccc2)nc2cnc(N3CCOCC3)nc2n1C[C@H]1CCCO1` . > 11.4 µM (inactive)

I am curious: what Potency value has been reported for `O=c1cnc2cnc(N3CCOCC3)nc2n1C[C@H]1CCCO1` ? > 11.4 µM (inactive)

What measured Potency goes with `COc1ccccc1-c1nc(N2CCOCC2)c2ccccc2n1` ? > 11.4 µM (inactive)

Would you kindly share the measured Potency for `COc1ccc(-n2c(=O)cnc3cnc(Oc4cccc(Cl)c4)nc32)cc1` ? > 11.4 µM (inactive)

Look up Potency for this molecule: `COc1ccc(CNc2nc(-c3c(C)noc3C)nc3ccccc23)c(OC)c1` > 2.29 µM (inactive)

Which measured Potency value corresponds to `COCCn1c(=O)c(-c2ccccc2)nc2cnc(N3CCN(C)CC3)nc21` ? > 11.4 µM (inactive)

For the molecule `O=C(c1ccncc1)N1CCC[C@@]2(CCN(c3ccccc3)C2)C1` , what Potency is on record? > 11.4 µM (inactive)

Please look up its Potency: `CS(=O)(=O)N1CCC[C@@]2(CCN(C(c3ccccc3)c3ccccc3)C2)C1` > 11.4 µM (inactive)

Consider the molecule shown here: `COc1ccccc1CNc1nc(-c2cccc(C#N)c2)nc2ccccc12` What is its recorded Potency? > 11.4 µM (inactive)

So what's the measured Potency for this one? `COc1ccccc1CN1CCCC2(CCN(C(C)=O)CC2)C1` > 11.4 µM (inactive)

Please give the measured Potency for this molecule: `O=c1c(-c2ccc(F)cc2)nc2cnc(N3CCOCC3)nc2n1Cc1ccc(F)cc1` > 11.4 µM (inactive)

Which Potency is listed for `CS(=O)(=O)N1CCC2(CCN(c3ccncc3)CC2)CC1` ? > 11.4 µM (inactive)

Need Potency of `COc1ccccc1-c1nc(N(C)Cc2ccco2)c2ccccc2n1` , thanks. > 11.4 µM (inactive)

Value lookup for Potency; key = `COc1ccc(CNc2ncncc2-c2c(C)noc2C)c(OC)c1` > 11.4 µM (inactive)

Bench note: what Potency did `O=C(Oc1ccccc1)N1CCC2(CC1)CN(c1ccccn1)C2` show? > 11.4 µM (inactive)

Could you share which Potency value was measured for `COc1ccccc1-c1nccc(NCc2cccnc2)n1` ? > 11.4 µM (inactive)

Please give the measured Potency for this molecule: `CN1CCN(c2ncc3nc(-c4ccc(F)cc4)c(=O)n(C4CC4)c3n2)CC1` > 11.4 µM (inactive)
